target: human neutrophil elastase (HNE) (Homo sapiens, UniProt P08246)
Sequence (P08246 30-267): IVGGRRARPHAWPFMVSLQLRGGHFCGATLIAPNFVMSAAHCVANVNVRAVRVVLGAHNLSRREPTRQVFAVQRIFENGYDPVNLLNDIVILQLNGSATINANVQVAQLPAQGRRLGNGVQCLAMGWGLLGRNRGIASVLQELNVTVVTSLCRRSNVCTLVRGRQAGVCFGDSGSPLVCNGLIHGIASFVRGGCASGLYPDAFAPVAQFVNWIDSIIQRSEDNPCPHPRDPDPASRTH
experimentSummary: In vitro HNE inhibition assay
reportedConditions: HNE concentration of 80 pM; substrate MeOSuc-Ala-Ala-Pro-Val-AMC; 37° C., 2 hours
property: IC50 (pM)

A. CC1=C(C#N)[C@@H](c2ccc(C#N)cc2S(C)(=N)=O)NC(=O)N1c1cccc(C(F)(F)F)c1 (mixture of isomers)
B. CC1=C(C#N)[C@@H](c2ccc(C#N)cc2S(N)(=O)=O)NC(=O)N1c1cccc(C(F)(F)F)c1
C. CC1=C(C#N)[C@@H](c2ccc(C#N)cc2S(=O)(=O)NCCCN2CCCC2=O)NC(=O)N1c1cccc(C(F)(F)F)c1
List the molecules shown above again, sorted by falling IC50 values. Rank the items, then write their labels in that order.
C, A, B

###

Test system: rat hepatocytes
experimentSummary: Hepatocyte assay to determine the metabolic stability
Format: in vitro ADME
reportedConditions: rat, po
property: Fmax, maximum possible bioavailability after oral administration (well-stirred) (%)

Give the reported value of Fmax, maximum possible bioavailability after oral administration (well-stirred) for this record: "CC1=C(C#N)[C@@H](c2ccc(C#N)cc2S(=O)(=O)NCC(N)=O)N(C)C(=O)N1c1cccc(C(F)(F)F)c1"
54

Give the reported value of Fmax, maximum possible bioavailability after oral administration (well-stirred) for this record: "CC1=C(C#N)[C@@H](c2ccc(C#N)cc2S(N)(=O)=O)NC(=O)N1c1cccc(C(F)(F)F)c1"
97

P. CC1=C(C#N)[C@@H](c2ccc(C#N)cc2S(C)(=N)=O)NC(=O)N1c1cccc(C(F)(F)F)c1 (mixture of isomers)
Q. CNS(=O)(=O)c1cc(C#N)ccc1[C@H]1NC(=O)N(c2cccc(C(F)(F)F)c2)C(C)=C1C#N
Could you determine which record has the numerically smaller Fmax, maximum possible bioavailability after oral administration (well-stirred)? Candidates: P and Q Record your answer as the label of the chosen record.
Q
(Q: 54%, P: 100%)

###

Tested on: rat hepatocytes
experimentSummary: Hepatocyte assay to determine the metabolic stability
Type: in vitro ADME
reportedConditions: hepatocytes
property: CLblood, calculated blood clearance (well-stirred) (L/h/kg)

These solved cases illustrate the format of a correct answer.
Look up rat hepatocytes data: CLblood, calculated blood clearance (well-stirred) of CC1=C(C#N)[C@@H](c2ccc(C#N)cc2S(C)(=N)=O)NC(=O)N1c1cccc(C(F)(F)F)c1 (mixture of isomers) , then report it.
0.0

Look up rat hepatocytes data: CLblood, calculated blood clearance (well-stirred) of "CC1=C(C#N)[C@@H](c2ccc(C#N)cc2S(=O)(=O)NCC(N)=O)N(C)C(=O)N1c1cccc(C(F)(F)F)c1" , then report it.
1.9

a. CNS(=O)(=O)c1cc(C#N)ccc1[C@H]1NC(=O)N(c2cccc(C(F)(F)F)c2)C(C)=C1C#N
b. CC1=C(C#N)[C@@H](c2ccc(C#N)cc2S(N)(=O)=O)NC(=O)N1c1cccc(C(F)(F)F)c1
Compare a and b by numeric CLblood, calculated blood clearance (well-stirred) and name the larger one. Record your answer as the label of the chosen record.
a
(a: 1.9 L/h/kg, b: 0.1 L/h/kg)
